Measured log10 Cmax of individual entries
assay: Cmax in rat at 3 mg/kg, po; assay type: ADME, organism-based; design: dose 3 mg/kg, route oral; conditions: in vivo
Values below are the log10 of the recorded Cmax, with ng/mL as the unit.

Illustrative cases are given below, each with its answer.
cpd-smiles	log10 Cmax
O=C(Cc1ccc(-n2nc(C(F)(F)F)c3c2CCCC3)cc1F)N1CCCC1	2.05
O=C1CCCN1Cc1ccc(-n2nc(C(F)(F)F)c3c2CCCC3)cc1F	2.22
O=C(c1ccc(-n2nc(C(F)(F)F)c3c2CCCC3)cc1)N1CCCC1	2.36
O=S1(=O)CCCN1Cc1ccc(-n2nc(C(F)(F)F)c3c2CCCC3)cc1	2.13
O=C(Cc1ccc(-n2nc(C(F)(F)F)c3c2CCCC3)cc1)N1CCCC1	1.98

Attention now shifts to the item below.
Query: Record request: log10 Cmax value, item "O=C(c1ccc(-n2nc(C(F)(F)F)c3c2CCCC3)cc1)N1CCOCC1"
Result: 2.77
